# System: T-lymphocyte CEM
# ASSAY_METHOD_TEXT: Cytostatic effect against CEM cells
# Assay type: cell-based
# SETTINGS: Homo sapiens, without DCF (Table 4), read-out: Inhibitory dose-50 CEM
Give measured pIC50 for each item. Keep answers brief.
Conceptually, pIC50 converts a concentration in mol/L into minus its log10.

# input Value wanted: pIC50 (T-lymphocyte CEM) of entry Nc1nc(N)c2ncn([C@H]3C[C@H](F)[C@@H](CO)O3)c2n1
# output 3.62

# input Value wanted: pIC50 (T-lymphocyte CEM) of entry Nc1nc(N)c2ncn([C@H]3CC[C@@H](CO)O3)c2n1
# output 3.89

* * *

# System: Moloney murine sarcoma virus (MSV)
# ASSAY_METHOD_TEXT: MSV-induced C3H cell transformation
# Format: cell-based
# SETTINGS: selectivity index, ratio of 50% cytotoxic dose to 50% antivirally effective dose
MEASURED_QUANTITY: MSV-induced C3H cell transformation S.I.

# input Query: MSV-induced C3H cell transformation S.I.; subject: Nc1nc(N)c2ncn([C@H]3C[C@H](F)[C@@H](CO)O3)c2n1 [FddDAPR]
# output > 15

# input Query: MSV-induced C3H cell transformation S.I.; subject: Nc1nc(N)c2ncn([C@H]3CC[C@@H](CO)O3)c2n1 [ddDAPR]
# output ≧ 11

# input Query: MSV-induced C3H cell transformation S.I.; subject: Nc1nc2c(ncn2[C@H]2C[C@H](F)[C@@H](CO)O2)c(=O)[nH]1 [FddGuo, 3′-fluoro-2′,3′-dideoxyguanosine]
# output > 23

# input Query: MSV-induced C3H cell transformation S.I.; subject: Nc1nc2c(ncn2[C@H]2CC[C@@H](CO)O2)c(=O)[nH]1 [ddGuo, 2′,3′-Dideoxyguanosine]
# output > 5.5

* * *

# ASSAY_METHOD_TEXT: in vitro
# Format: cell-based
# SETTINGS: human, mt4 cells
MEASURED_QUANTITY: CC50 at 120 h (µM)
Hi! Could you send only the number? It should be in µM, unit omitted.

# input Query: CC50 at 120 h; subject: Nc1nc(N)c2ncn([C@H]3CC[C@@H](CO)O3)c2n1
# output 404

# input Query: CC50 at 120 h; subject: Nc1nc(N)c2ncn([C@H]3C[C@H](F)[C@@H](CO)O3)c2n1
# output 360

# input Query: CC50 at 120 h; subject: Nc1nc2c(ncn2[C@H]2CC[C@@H](CO)O2)c(=O)[nH]1
# output 486

# input Query: CC50 at 120 h; subject: Nc1nc2c(ncn2[C@H]2C[C@H](F)[C@@H](CO)O2)c(=O)[nH]1
# output 231

* * *

# System: HIV (HTLV-IIIB)
# ASSAY_METHOD_TEXT: HIV-induced cytopathogenicity in MT4 cells (viable cell count by trypan blue exclusion after 5 days)
# Assay type: cell-based
# SETTINGS: Human immunodeficiency virus 1, IIIB, MT4, 120 h, MT4 cells, 5 days at 37°C; read-out: HIV-induced cytopathogenicity in MT4 cells ED₅₀
Give measured EC50 for each item. Keep answers brief.
Hi! Could you send only the number? It should be in µM, unit omitted.

# input Query: EC50; subject: Nc1nc(N)c2ncn([C@H]3CC[C@@H](CO)O3)c2n1 [ddDAPR]
# output 3.8

# input Query: EC50; subject: Nc1nc2c(ncn2[C@H]2CC[C@@H](CO)O2)c(=O)[nH]1 [ddGuo, 2′,3′-Dideoxyguanosine]
# output 7.6

# input Query: EC50; subject: Nc1nc(N)c2ncn([C@H]3C[C@H](F)[C@@H](CO)O3)c2n1 [FddDAPR]
# output 4.5

# input Query: EC50; subject: Nc1nc2c(ncn2[C@H]2C[C@H](F)[C@@H](CO)O2)c(=O)[nH]1 [FddGuo, 3′-fluoro-2′,3′-dideoxyguanosine]
# output 2.4
